Measured values drawn from paper PMC10397247 for this set.

- system tested: T1, 4H794-AA
- T1 chain: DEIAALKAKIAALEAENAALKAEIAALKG
- test details: two-hybrid library CCmax;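 further: natural log of median RNA to DNA barcode read ratio; higher means stronger binding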
- measurement parameters: mean of both orientations
The binders listed here are annotated with their interaction score.
Format: numeric value only, no unit, no commentary.

Completed entries (count: 8):
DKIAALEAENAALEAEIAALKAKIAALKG [4H2190-AA]: -0.883
DEIAALEAKNAALEAKIAALKAKIAALEG [4H429-AA]: -0.809
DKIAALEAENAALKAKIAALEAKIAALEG [4H2277-AA]: -1.24
DKNAALKAKIAALKAENAALEAEIAALEG [4H3921-AA]: -0.924
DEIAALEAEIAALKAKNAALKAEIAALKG [4H122-AA]: 1.48
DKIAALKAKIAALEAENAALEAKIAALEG [4H2837-AA]: 0.0291
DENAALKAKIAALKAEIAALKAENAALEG [4H1867-AA]: -1.4
DEIAALKAEIAALKAENAALKAKIAALEG [4H605-AA]: -0.923

Problem: // lookup interaction score for DEIAALKAEIAALEAKNAALEAKIAALKG [4H566-AA]
Result: -0.409

Problem: // lookup interaction score for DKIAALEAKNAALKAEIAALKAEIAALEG [4H2505-AA]
Result: -0.881

Problem: // lookup interaction score for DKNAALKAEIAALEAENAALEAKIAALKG [4H3606-AA]
Result: -0.14

Problem: // lookup interaction score for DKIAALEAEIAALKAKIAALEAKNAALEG [4H2151-AA]
Result: -1.95

Problem: // lookup interaction score for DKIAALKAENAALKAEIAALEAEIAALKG [4H2754-AA]
Result: -1.89

Problem: // lookup interaction score for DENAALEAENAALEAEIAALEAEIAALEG [4H1153-AA]
Result: -1.49

Problem: // lookup interaction score for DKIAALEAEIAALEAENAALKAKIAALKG [4H2078-AA]
Result: 1.84

Problem: // lookup interaction score for DEIAALKAKIAALEAEIAALKAENAALKG [4H780-AA]
Result: -1.57

Problem: // lookup interaction score for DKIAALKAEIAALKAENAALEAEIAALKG [4H2642-AA]
Result: 0.96
